Values compiled from the RNAGym collection of RNA variant scans (doi:10.1073/pnas.2313332121).

B1: TPR 5TU (parent)
chain: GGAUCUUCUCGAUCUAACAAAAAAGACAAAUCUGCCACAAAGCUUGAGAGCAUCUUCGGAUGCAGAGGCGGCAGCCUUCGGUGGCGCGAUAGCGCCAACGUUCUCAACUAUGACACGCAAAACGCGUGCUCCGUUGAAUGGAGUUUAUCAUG

- Variants of: B1
- EXPERIMENT: polymerase ribozyme fitness, log enrichment relative to wild type (log ratio); higher = more active; in vitro selection for triplet polymerase activity
Variants at the floor of the assay were thinned out.
Measured polymerase ribozyme fitness (log ratio) values are reported for all entries that follow.
Field format: numeric only.

U101G A107U: -3.84
A22U U55A: -0.43
C63U: -0.0732

**Q:** Provide measured polymerase ribozyme fitness (log ratio) value, entry: C35U G86U
**A:** -1.43

**Q:** Identify the reported polymerase ribozyme fitness (log ratio) for the following entry. U45G A115G
**A:** -1.98

**Q:** Using the record for U56G A60G C99U U102A , state its measured polymerase ribozyme fitness (log ratio).
**A:** -2.07

**Q:** Supply recorded polymerase ribozyme fitness (log ratio) for G133A U134G here.
**A:** -2.81

**Q:** Recall and state the measured polymerase ribozyme fitness (log ratio) for G25U C132U .
**A:** -2.32
